FYI, the data here is from paper PMC7150891.

Test system: UGT1A4 mRNA
TEST METHOD NOTES: UGT1A4 mRNA level in human hepatocytes after 48 h treatment (RT-PCR)
CONDITION LABEL: read-out: IC50, suppression of UGT1A4 mRNA expression; human hepatocytes Lot 319, 48 h, 1.25–2500 nM
QUANTITY NAME: IC50

# input compound: COc1cc2cc(c1Cl)N(C)C(=O)CC(OC(=O)C(C)N(C)C(=O)CCS)C1(C)OC1C(C)C1CC(O)(NC(=O)O1)C(OC)C=CC=C(C)C2 (stereo not shown) ; wanted: its IC50
> 2500 nM

---

System: CYP1A2 mRNA (suppression of expression)
TEST METHOD NOTES: CYP1A2 mRNA level in human hepatocytes after 48 h treatment (RT-PCR)
Type: cell-based
CONDITION LABEL: human hepatocytes Lot 361, 48 h, 1.25–2500 nM
QUANTITY NAME: IC50 at 48 h (nM)
Note: unit nM is implicit; provide only the numeric part.

Hello, I am looking for reported IC50 at 48 h with CYP1A2 mRNA (suppression of expression) for COc1cc2cc(c1Cl)N(C)C(=O)CC(OC(=O)C(C)N(C)C(=O)CCS)C1(C)OC1C(C)C1CC(O)(NC(=O)O1)C(OC)C=CC=C(C)C2 (stereo not shown) . Could you help?
27.3

---

Test system: UGT1A9 mRNA
TEST METHOD NOTES: UGT1A9 mRNA level in human hepatocytes after 48 h treatment (RT-PCR)
CONDITION LABEL: plated cryopreserved human hepatocytes, IC50, suppression of UGT1A9 mRNA expression, human hepatocytes Lot 321, 48 h, 1.25–2500 nM
QUANTITY NAME: IC50 at 48 h (nM)
Note: unit nM is implicit; provide only the numeric part.

Hello, I am looking for reported IC50 at 48 h with UGT1A9 mRNA for COc1cc2cc(c1Cl)N(C)C(=O)CC(OC(=O)C(C)N(C)C(=O)CCS)C1(C)OC1C(C)C1CC(O)(NC(=O)O1)C(OC)C=CC=C(C)C2 (stereo not shown) . Could you help?
31.4

---

System: CYP2C19 mRNA
TEST METHOD NOTES: CYP2C19 mRNA level in human hepatocytes after 48 h treatment (RT-PCR)
CONDITION LABEL: plated cryopreserved human hepatocytes, IC50, suppression of CYP2C19 mRNA expression, human hepatocytes Lot 361, 48 h, 1.25–2500 nM
QUANTITY NAME: IC50 at 48 h
Give the value; after it, write the unit.

# input compound: COc1cc2cc(c1Cl)N(C)C(=O)CC(OC(=O)C(C)N(C)C(=O)CCS)C1(C)OC1C(C)C1CC(O)(NC(=O)O1)C(OC)C=CC=C(C)C2 (stereo not shown) [mertansine, Mertansine] ; wanted: its IC50 at 48 h
291 nM

---

Test system: UGT1A1 mRNA
TEST METHOD NOTES: UGT1A1 mRNA level in human hepatocytes after 48 h treatment (RT-PCR)
CONDITION LABEL: human, IC50, suppression of UGT1A1 mRNA expression, human hepatocytes Lot 319, 48 h, 1.25–2500 nM
QUANTITY NAME: IC50 at 48 h (µM)
Note: unit µM is implicit; provide only the numeric part.

# input compound: COc1cc2cc(c1Cl)N(C)C(=O)CC(OC(=O)C(C)N(C)C(=O)CCS)C1(C)OC1C(C)C1CC(O)(NC(=O)O1)C(OC)C=CC=C(C)C2 (stereo not shown) ; wanted: its IC50 at 48 h
0.784

---

System: CYP2B6 mRNA
TEST METHOD NOTES: CYP2B6 mRNA level in human hepatocytes after 48 h treatment (RT-PCR)
Type: cell-based
CONDITION LABEL: Mean ± SD of three human hepatocyte lots, 48 h, 1.25–2500 nM, read-out: IC50, suppression of CYP2B6 mRNA expression
QUANTITY NAME: IC50 at 48 h (µM)
Note: unit µM is implicit; provide only the numeric part.

# input compound: COc1cc2cc(c1Cl)N(C)C(=O)CC(OC(=O)C(C)N(C)C(=O)CCS)C1(C)OC1C(C)C1CC(O)(NC(=O)O1)C(OC)C=CC=C(C)C2 (stereo not shown) [mertansine, Mertansine] ; wanted: its IC50 at 48 h
0.0368

---

Tested on: UGT1A9 mRNA
TEST METHOD NOTES: UGT1A9 mRNA level in human hepatocytes after 48 h treatment (RT-PCR)
CONDITION LABEL: plated cryopreserved human hepatocytes, IC50, suppression of UGT1A9 mRNA expression, human hepatocytes Lot 319, 48 h, 1.25–2500 nM
QUANTITY NAME: IC50 at 48 h (nM)
Note: unit nM is implicit; provide only the numeric part.

Hello, I am looking for reported IC50 at 48 h with UGT1A9 mRNA for COc1cc2cc(c1Cl)N(C)C(=O)CC(OC(=O)C(C)N(C)C(=O)CCS)C1(C)OC1C(C)C1CC(O)(NC(=O)O1)C(OC)C=CC=C(C)C2 (stereo not shown) . Could you help?
86.9

---

Test system: UGT1A9 mRNA
TEST METHOD NOTES: UGT1A9 mRNA level in human hepatocytes after 48 h treatment (RT-PCR)
CONDITION LABEL: plated cryopreserved human hepatocytes, IC50, suppression of UGT1A9 mRNA expression, Mean ± SD of three human hepatocyte lots, 48 h, 1.25–2500 nM
QUANTITY NAME: IC50 at 48 h (nM)
Note: unit nM is implicit; provide only the numeric part.

# input molecule: COc1cc2cc(c1Cl)N(C)C(=O)CC(OC(=O)C(C)N(C)C(=O)CCS)C1(C)OC1C(C)C1CC(O)(NC(=O)O1)C(OC)C=CC=C(C)C2 (stereo not shown) ; wanted: its IC50 at 48 h
54.1

---

Test system: CYP3A4 mRNA
TEST METHOD NOTES: in vitro
CONDITION LABEL: human, hepatocytes, IC50, suppression of CYP3A4 mRNA expression, human hepatocytes Lot 321, 48 h, 1.25–2500 nM
QUANTITY NAME: IC50 (nM)
Note: unit nM is implicit; provide only the numeric part.

# input molecule: COc1cc2cc(c1Cl)N(C)C(=O)CC(OC(=O)C(C)N(C)C(=O)CCS)C1(C)OC1C(C)C1CC(O)(NC(=O)O1)C(OC)C=CC=C(C)C2 (stereo not shown) ; wanted: its IC50
120

---

Tested on: CYP2B6 mRNA (suppression of expression)
TEST METHOD NOTES: CYP2B6 mRNA level in human hepatocytes after 48 h treatment (RT-PCR)
Type: cell-based
CONDITION LABEL: human hepatocytes Lot 321, 48 h, 1.25–2500 nM
QUANTITY NAME: IC50 at 48 h
Give the value; after it, write the unit.

# input compound: COc1cc2cc(c1Cl)N(C)C(=O)CC(OC(=O)C(C)N(C)C(=O)CCS)C1(C)OC1C(C)C1CC(O)(NC(=O)O1)C(OC)C=CC=C(C)C2 (stereo not shown) [mertansine, Mertansine] ; wanted: its IC50 at 48 h
57.8 nM

---

System: CYP2C8 mRNA
TEST METHOD NOTES: CYP2C8 mRNA level in human hepatocytes after 48 h treatment (RT-PCR)
CONDITION LABEL: plated cryopreserved human hepatocytes, IC50, suppression of CYP2C8 mRNA expression, human hepatocytes Lot 321, 48 h, 1.25–2500 nM
QUANTITY NAME: IC50 at 48 h
Give the value; after it, write the unit.

# input compound: COc1cc2cc(c1Cl)N(C)C(=O)CC(OC(=O)C(C)N(C)C(=O)CCS)C1(C)OC1C(C)C1CC(O)(NC(=O)O1)C(OC)C=CC=C(C)C2 (stereo not shown) [mertansine, Mertansine] ; wanted: its IC50 at 48 h
20 nM

---

Test system: CYP2B6 mRNA (suppression of expression)
TEST METHOD NOTES: CYP2B6 mRNA level in human hepatocytes after 48 h treatment (RT-PCR)
Format: cell-based
CONDITION LABEL: human hepatocytes Lot 361, 48 h, 1.25–2500 nM
QUANTITY NAME: IC50 at 48 h (µM)
Note: unit µM is implicit; provide only the numeric part.

Hello, I am looking for reported IC50 at 48 h with CYP2B6 mRNA (suppression of expression) for COc1cc2cc(c1Cl)N(C)C(=O)CC(OC(=O)C(C)N(C)C(=O)CCS)C1(C)OC1C(C)C1CC(O)(NC(=O)O1)C(OC)C=CC=C(C)C2 (stereo not shown) . Could you help?
0.0276

---

Test system: CYP1A2 mRNA (suppression of expression)
TEST METHOD NOTES: CYP1A2 mRNA level in human hepatocytes after 48 h treatment (RT-PCR)
Assay type: cell-based
CONDITION LABEL: Mean ± SD of three human hepatocyte lots, 48 h, 1.25–2500 nM
QUANTITY NAME: IC50 at 48 h

# input compound: COc1cc2cc(c1Cl)N(C)C(=O)CC(OC(=O)C(C)N(C)C(=O)CCS)C1(C)OC1C(C)C1CC(O)(NC(=O)O1)C(OC)C=CC=C(C)C2 (stereo not shown) ; wanted: its IC50 at 48 h
93.7 nM
